# protocol details: Absolute bioavailability / PK after IV and PO dosing in CD-1 male mice
# Type: in vivo
# assay setup: mouse, plasma; CD-1 male mice, PO 10 mg/kg; read-out: Oral suspension bioavailability (% F)
quantity kind: bioavailability

INPUT: Looking for the measured bioavailability of Nc1nccc(-c2c[nH]c3nccc(Oc4cccc(F)c4)c23)n1 , can you help?
OUTPUT: > 100%

* * *

# protocol details: Snapshot plasma pharmacokinetics in mice
# Type: in vivo
# assay setup: mouse, plasma, oral, 5 mg/kg, in vivo PK comparison of CDK inhibitors, Table 13; read-out: Cmax
quantity kind: Cmax
Answer format: value, then unit.

INPUT: Looking for the measured Cmax of CC(=O)c1c(C)c2cnc(Nc3ccc(N4CCNCC4)cn3)nc2n(C2CCCC2)c1=O [Palbociclib] , can you help?
OUTPUT: 196 ng/mL
